assayed_target: human MGL from HeLa cells (Homo sapiens (Human), UniProt Q99685)
Sequence (Q99685 whole entry): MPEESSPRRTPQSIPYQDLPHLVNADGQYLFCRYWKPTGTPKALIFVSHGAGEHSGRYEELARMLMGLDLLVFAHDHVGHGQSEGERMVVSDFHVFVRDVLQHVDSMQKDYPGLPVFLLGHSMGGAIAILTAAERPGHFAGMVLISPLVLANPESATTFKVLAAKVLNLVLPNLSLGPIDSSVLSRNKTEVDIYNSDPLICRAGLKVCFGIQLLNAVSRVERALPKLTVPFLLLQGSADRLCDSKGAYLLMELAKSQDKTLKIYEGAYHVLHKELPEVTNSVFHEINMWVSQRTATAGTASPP
method_notes: MGL in vitro activity assay ([glycerol-1,3-3H]-oleoyl glycerol cleavage, activated carbon filter)
Assay type: biochemical
condition_details: 300 nM [Glycerol-1,3-3H]-oleoyl glycerol, endogenously expressed MGL from HeLa cells, one hour incubation; read-out: MGL IC50
Field: label. Allowed values: 1.0 (IC50 < 8 nM) or 0.0 (IC50 >= 8 nM).

                                   compound  class
0  Cc1ccc(C23CCN(C(=O)[C@H]4C[C@]5(COC(=O)N5)C4)CC2C3)cc1 (mixture of isomers)    1.0

Asked: Lab note: confirm whether the reported IC50 for this compound is below 8 nM, equality not counting. compound: Cc1cc(C(F)(F)F)ccc1C12CC1CN(C(=O)[C@H]1C[C@]3(COC(=O)N3)C1)C2 (mixture of isomers)
Given back: 1.0

Asked: I'd appreciate it if you could check whether CCc1cc([C@H]2[C@@H]3CN(C(=O)[C@H]4C[C@]5(COC(=O)N5)C4)C[C@@H]32)ccc1F has IC50 smaller than 8 nM.
Given back: 0.0

Asked: Consider the compound O=C1N[C@]2(CO1)C[C@H](C(=O)N1CCC3(c4cccc(C(F)(F)F)c4)CC3C1)C2 (mixture of isomers) . Is its IC50 strictly less than 8 nM?
Given back: 1.0

Reference for the values: patent US11708359B2
